- measured on: T1, human BCMA-Fc/His (1-51) (human, UniProt Q02223 1-51)
- T1 construct: also called recombinant human BCMA-Fc/His; recombinant human BCMA-His (Sino Biological Inc.); not shown: Fc region; C-terminal His tag
- T1 sequence: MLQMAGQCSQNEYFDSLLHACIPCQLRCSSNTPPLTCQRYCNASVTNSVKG
- protocol: BLI (Octet), antigen on Ni-NTA biosensor, IgG in solution
pKd: −log10 of the molar value.
In this scheme, each record receives a class according to its pKd; the ranges are class A = under 9, class B = from 9 up to 10, class C = 10 and over

binder	class assignment
anti-BCMA IgG antibody 5A6 (antibody, V domains shown, also called 5A6 WT; 5A6 antibody) VH: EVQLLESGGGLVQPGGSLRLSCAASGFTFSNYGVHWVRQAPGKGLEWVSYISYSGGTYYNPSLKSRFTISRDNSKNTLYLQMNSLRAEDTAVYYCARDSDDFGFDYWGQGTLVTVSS VL: QSVLTQPPSASGTPGQRVTISCQGDSLRSYYVNWYQQLPGTAPKLLIYDHSKRPTGVPDRFSGSKSGTSASLAISGLRSEDEADYYCQSYDSSTVVFGGGTKLTVLG	class C

Kindly state the category for this binder: anti-BCMA IgG antibody 2C6 (antibody, V domains shown) VH: EVQLLESGGGLVQPGGSLRLSCAASGFTFSNYGMSWVRQAPGKGLEWVSSIDYNGSTYYNPSLKSRFTISRDNSKNTLYLQMNSLRAEDTAVYYCAKEHGLFDSWGQGTLVTVSS VL: EIVLTQSPGTLSLSPGERATLSCRVSQSISSYLNWYQQKPGQAPRLLIYDASTRAIGIPDRFSGSGSGTDFTLTISRLEPEDFAVYYCQQVNSYPITFGQGTKVEIKR
class B

Kindly state the category for this binder: anti-BCMA IgG antibody 2F8 (antibody, V domains shown) VH: EVQLLESGGGLVQPGGSLRLSCAASGFTFSNYGMSWVRQAPGKGLEWVSEIIPIFDTSNYAQKFQGRFTISRDNSKNTLYLQMNSLRAEDTAVYYCAKIPGNRHDYWGQGTLVTVSS VL: QSVLTQPPSASGTPGQRVTISCTRMQRQSDWYQQLPGTAPKLLIYDNNKRPLGVPDRFSGSKSGTSASLAISGLRSEDEADYYCQSYDSNAYVVFGGGTKLTVLG
class A

Kindly state the category for this binder: anti-BCMA IgG antibody 5B5 (antibody, V domains shown, also called 5B5 antibody) VH: EVQLLESGGGLVQPGGSLRLSCAASGFTFSGHYWSWVRQAPGKGLEWVSTVSGSGGDTFYADSVKGRFTISRDNSKNTLYLQMNSLRAEDTAVYYCARGHSVMDVWGQGTLVTVSS VL: EIVLTQSPGTLSLSPGERATLSCRASQGIDSYVAWYQQKPGQAPRLLIYDASLRATGIPDRFSGSGSGTDFTLTISRLEPEDFAVYYCQQYNSWPITFGQGTKLEIKR
class B

Kindly state the category for this binder: anti-BCMA IgG antibody B58 (antibody, V domains shown, also called B58 antibody) VH: EVQLLESGGGLVQPGGSLRLSCAASGFTFSNYDMSWVRQAPGKGLEWVSWIYPSDSSIYYADSVKGRFTISRDNSKNTLYLQMNSLRAEDTAVYYCARGPFANKYRQFDYWGQGTLVTVSS VL: QSVLTQPPSASGTPGQRVTISCSGSSSNIGSNSVSWYQQLPGTAPKLLIYADSKRPSGVPDRFSGSKSGTSASLAISGLRSEDEADYYCGSWDYSLSGYVFGGGTKLTVL
class C

Kindly state the category for this binder: anti-BCMA IgG antibody 5C3 (antibody, V domains shown) VH: EVQLLESGGGLVQPGGSLRLSCAASGFTFSDYYIHWVRQAPGKGLEWVSAISGSGGSTYYADSVKGRFTISRDNSKNTLYLQMNSLRAEDTAVYYCASDLGDTTFDSWGQGTLVTVSS VL: EIVLTQSPGTLSLSPGERATLSCQASDDISNYLNWYQQKPGQAPRLLIYGVSNRASGIPDRFSGSGSGTDFTLTISRLEPEDFAVYYCQQSYSTPPITFGQGTKLEIKR
class A
